The measured values listed here are drawn from ChEMBL document CHEMBL1138218.

target: Bcl-2-like protein 1 (Homo sapiens, UniProt Q07817); test: Growth inhibition of Jurkat cell overexpressing BclXL; type: functional, cell-based
Sequence (Q07817 whole entry): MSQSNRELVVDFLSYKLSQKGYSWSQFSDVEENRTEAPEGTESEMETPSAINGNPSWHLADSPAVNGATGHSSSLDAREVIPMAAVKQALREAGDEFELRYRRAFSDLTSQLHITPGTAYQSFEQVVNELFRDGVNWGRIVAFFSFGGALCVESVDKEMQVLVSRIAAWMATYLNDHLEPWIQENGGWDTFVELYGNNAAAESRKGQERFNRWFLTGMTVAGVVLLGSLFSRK
metric: GI50 (µM)

{"compound": "CCOC(=O)C1=C(N)Oc2ccc(C)cc2C1C(C#N)C(=O)OCC (configuration not stated)", "assayed-system": "Bcl-2-like protein 1 (Homo sapiens, UniProt Q07817)", "GI50 [µM]": 41}
{"compound": "CCOC(=O)C1=C(N)Oc2ccc(-c3ccccc3)cc2C1C(C#N)C(=O)OCC (configuration not stated)", "assayed-system": "Bcl-2-like protein 1 (Homo sapiens, UniProt Q07817)", "GI50 [µM]": 4.1}

a. CCOC(=O)C1=C(N)Oc2ccc(CC)cc2C1C(C#N)C(=O)OCC (configuration not stated)
b. COc1cccc2c1C(=O)c1c(O)c3c(c(O)c1C2=O)C[C@@](O)(C(=O)CO)C[C@@H]3O[C@H]1C[C@H](N)[C@H](O)[C@H](C)O1
c. CCOC(=O)C1=C(N)Oc2ccc(C3CCCC3)cc2C1C(C#N)C(=O)OCC (configuration not stated)
d. CCOC(=O)C1=C(N)Oc2ccc(-c3ccc(C(C)(C)C)cc3)cc2C1C(C#N)C(=O)OCC (configuration not stated)
[ask] Put the entries in order of GI50, starting with the largest number. The reply should contain the labels ordered as requested.
[reply] b, a, c, d
